targetDesc: CECR2 (Homo sapiens (Human), UniProt Q9BXF3)
Sequence (Q9BXF3 whole entry): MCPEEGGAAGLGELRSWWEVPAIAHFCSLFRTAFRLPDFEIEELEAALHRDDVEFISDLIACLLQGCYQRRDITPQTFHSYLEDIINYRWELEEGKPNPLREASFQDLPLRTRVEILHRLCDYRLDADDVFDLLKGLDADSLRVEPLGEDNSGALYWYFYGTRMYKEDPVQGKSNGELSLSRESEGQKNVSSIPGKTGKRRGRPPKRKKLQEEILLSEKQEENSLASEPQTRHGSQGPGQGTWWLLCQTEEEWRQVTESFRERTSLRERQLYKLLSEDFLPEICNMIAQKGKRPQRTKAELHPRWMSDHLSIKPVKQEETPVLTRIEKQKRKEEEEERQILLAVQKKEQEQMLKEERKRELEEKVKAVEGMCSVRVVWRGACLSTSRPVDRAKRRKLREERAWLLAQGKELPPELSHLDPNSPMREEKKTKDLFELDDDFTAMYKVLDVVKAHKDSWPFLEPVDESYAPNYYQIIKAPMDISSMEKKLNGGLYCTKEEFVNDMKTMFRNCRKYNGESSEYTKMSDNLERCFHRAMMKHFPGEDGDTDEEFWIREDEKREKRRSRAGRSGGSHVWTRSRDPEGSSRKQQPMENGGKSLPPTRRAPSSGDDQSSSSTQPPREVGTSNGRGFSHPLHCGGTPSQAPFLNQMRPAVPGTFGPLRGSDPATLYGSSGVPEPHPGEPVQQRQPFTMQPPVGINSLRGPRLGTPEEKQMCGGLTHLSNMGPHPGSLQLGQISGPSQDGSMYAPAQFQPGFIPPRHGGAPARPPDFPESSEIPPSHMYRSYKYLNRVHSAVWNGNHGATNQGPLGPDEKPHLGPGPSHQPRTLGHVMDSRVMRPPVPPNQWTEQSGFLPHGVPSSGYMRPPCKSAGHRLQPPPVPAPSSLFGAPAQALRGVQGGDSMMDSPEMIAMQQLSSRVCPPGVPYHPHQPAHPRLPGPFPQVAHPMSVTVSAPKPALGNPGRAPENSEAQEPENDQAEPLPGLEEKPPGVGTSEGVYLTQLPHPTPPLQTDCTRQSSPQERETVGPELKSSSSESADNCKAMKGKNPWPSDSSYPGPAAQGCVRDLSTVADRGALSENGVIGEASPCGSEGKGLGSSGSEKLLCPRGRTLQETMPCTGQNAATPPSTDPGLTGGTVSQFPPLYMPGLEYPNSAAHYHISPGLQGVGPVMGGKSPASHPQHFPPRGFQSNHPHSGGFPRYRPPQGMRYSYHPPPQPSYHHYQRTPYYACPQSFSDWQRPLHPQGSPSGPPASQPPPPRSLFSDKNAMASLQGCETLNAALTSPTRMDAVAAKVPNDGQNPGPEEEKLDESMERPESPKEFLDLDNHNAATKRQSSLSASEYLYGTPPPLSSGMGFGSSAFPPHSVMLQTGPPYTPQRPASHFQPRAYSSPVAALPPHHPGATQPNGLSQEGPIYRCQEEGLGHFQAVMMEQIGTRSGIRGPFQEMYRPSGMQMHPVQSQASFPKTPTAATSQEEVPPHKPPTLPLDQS
measurementDescription: BROMOscan
assayEndpoint: pKd
pKd (log units): -log10 of the concentration in mol/L.

Task: What value of pKd has been reported for the following compound? CCS(=O)(=O)Nc1cc(-c2cn(C)c3c(=O)[nH]ccc23)cc2c1ccn2C(C)(c1ccccn1)c1ccccn1 [Compound 70]
Result: 5.22

* * *

targetDesc: BRD3(1) (Homo sapiens (Human))
Sequence (Q15059 34-140): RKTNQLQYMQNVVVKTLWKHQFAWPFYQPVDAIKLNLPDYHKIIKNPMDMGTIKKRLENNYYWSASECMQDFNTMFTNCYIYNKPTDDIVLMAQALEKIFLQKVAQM
measurementDescription: BROMOscan
assayEndpoint: Kd (nM)
Supply the numeric figure in nM, leaving out any unit text.

Task: For the molecule shown here, "CCS(=O)(=O)Nc1cc(-c2cn(C)c3c(=O)[nH]ccc23)cc2c1ccn2C(C)(c1ccccn1)c1ccccn1" , give the reported Kd.
Result: 0.34

* * *

targetDesc: BRD2(2) (Homo sapiens (Human))
Sequence (P25440 344-453): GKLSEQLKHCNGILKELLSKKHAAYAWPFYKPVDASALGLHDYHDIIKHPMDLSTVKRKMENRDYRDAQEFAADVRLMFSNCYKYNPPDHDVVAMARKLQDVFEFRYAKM
measurementDescription: BROMOscan
assayEndpoint: Kd (nM)
Numeric only. Scale: nM

Task: Entry CCS(=O)(=O)Nc1cc(-c2cn(C)c3c(=O)[nH]ccc23)cc2c1ccn2C(C)(c1ccccn1)c1ccccn1 [Compound 70] has what Kd?
Result: 0.77

* * *

targetDesc: BRD3(2) (Homo sapiens (Human))
Sequence (Q15059 306-415): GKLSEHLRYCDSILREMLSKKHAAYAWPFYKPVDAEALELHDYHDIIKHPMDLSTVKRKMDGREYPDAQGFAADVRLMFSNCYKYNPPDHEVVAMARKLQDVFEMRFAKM
measurementDescription: BROMOscan
assayEndpoint: pKd
In simple prose, pKd is minus the logarithm base ten of a concentration in moles per litre.

Task: Which pKd value belongs to "CCS(=O)(=O)Nc1cc(-c2cn(C)c3c(=O)[nH]ccc23)cc2c1ccn2C(C)(c1ccccn1)c1ccccn1" ?
Result: 9.21

* * *

targetDesc: BRD4 bromodomain 1 (Homo sapiens (Human))
measurementDescription: TR-FRET BRD4 binding assay, bromodomain 1
testContext: read-out: TR-FRET BRD4-BD1 Ki
Description: Briefly, compounds were serial diluted into the 1×TR-FRET Assay Buffer with no more than 8% DMSO, and the final concentration tested was distributed from […] to 10 uM with no more than 2% DMSO. (+)JQ-1 was used as positive control. […] Then the plate was read in time-resolved format by exiting the well at 340 nm and reading emmission at 620 and 670 nm, using 100 us delay and 500 us read window. […]
pKi: −log10 of the molar value.
assayEndpoint: pKi

Task: Give BRD4 bromodomain 1 (Homo sapiens (Human)) pKi for "CC(=O)Nc1cc(-c2cn(C)c3c(=O)[nH]ccc23)cc2c1ccn2C(C)(c1ccccn1)c1ccccn1"
Result: > 8.00

Task: Moving on to the next molecule: "Cn1cc(-c2cc(NS(C)(=O)=O)c3ccn(Cc4ccc(F)cc4)c3c2)c2ccnc(O)c21"
Result: > 7.00

Task: Please answer likewise for "Cn1cc(-c2cc(C(C)(C)O)c3ccn(C(C)(c4ccccn4)c4ccccn4)c3c2)c2cc[nH]c(=O)c21"
Result: > 8.00

Task: # repeat for "CCS(=O)(=O)Nc1cc(-c2cn(C)c3c(O)nccc23)cc2c1cnn2Cc1ccc(F)cc1"
Result: > 7.00

Task: What do you get for "Cn1cc(-c2cc(NS(C)(=O)=O)c3cnn(Cc4ccc(F)cc4)c3c2)c2ccnc(O)c21" ?
Result: > 7.00

* * *

targetDesc: UniProt Q58F21
measurementDescription: BROMOscan
assayEndpoint: Kd (nM)
Expressed in nM, but write only the number.

Task: // lookup Kd | system=UniProt Q58F21 | key= CCS(=O)(=O)Nc1cc(-c2cn(C)c3c(=O)[nH]ccc23)cc2c1ccn2C(C)(c1ccccn1)c1ccccn1 [Compound 70]
Result: 1.4

* * *

targetDesc: BAZ2A (Homo sapiens (Human), UniProt Q9UIF9)
Sequence (Q9UIF9 whole entry): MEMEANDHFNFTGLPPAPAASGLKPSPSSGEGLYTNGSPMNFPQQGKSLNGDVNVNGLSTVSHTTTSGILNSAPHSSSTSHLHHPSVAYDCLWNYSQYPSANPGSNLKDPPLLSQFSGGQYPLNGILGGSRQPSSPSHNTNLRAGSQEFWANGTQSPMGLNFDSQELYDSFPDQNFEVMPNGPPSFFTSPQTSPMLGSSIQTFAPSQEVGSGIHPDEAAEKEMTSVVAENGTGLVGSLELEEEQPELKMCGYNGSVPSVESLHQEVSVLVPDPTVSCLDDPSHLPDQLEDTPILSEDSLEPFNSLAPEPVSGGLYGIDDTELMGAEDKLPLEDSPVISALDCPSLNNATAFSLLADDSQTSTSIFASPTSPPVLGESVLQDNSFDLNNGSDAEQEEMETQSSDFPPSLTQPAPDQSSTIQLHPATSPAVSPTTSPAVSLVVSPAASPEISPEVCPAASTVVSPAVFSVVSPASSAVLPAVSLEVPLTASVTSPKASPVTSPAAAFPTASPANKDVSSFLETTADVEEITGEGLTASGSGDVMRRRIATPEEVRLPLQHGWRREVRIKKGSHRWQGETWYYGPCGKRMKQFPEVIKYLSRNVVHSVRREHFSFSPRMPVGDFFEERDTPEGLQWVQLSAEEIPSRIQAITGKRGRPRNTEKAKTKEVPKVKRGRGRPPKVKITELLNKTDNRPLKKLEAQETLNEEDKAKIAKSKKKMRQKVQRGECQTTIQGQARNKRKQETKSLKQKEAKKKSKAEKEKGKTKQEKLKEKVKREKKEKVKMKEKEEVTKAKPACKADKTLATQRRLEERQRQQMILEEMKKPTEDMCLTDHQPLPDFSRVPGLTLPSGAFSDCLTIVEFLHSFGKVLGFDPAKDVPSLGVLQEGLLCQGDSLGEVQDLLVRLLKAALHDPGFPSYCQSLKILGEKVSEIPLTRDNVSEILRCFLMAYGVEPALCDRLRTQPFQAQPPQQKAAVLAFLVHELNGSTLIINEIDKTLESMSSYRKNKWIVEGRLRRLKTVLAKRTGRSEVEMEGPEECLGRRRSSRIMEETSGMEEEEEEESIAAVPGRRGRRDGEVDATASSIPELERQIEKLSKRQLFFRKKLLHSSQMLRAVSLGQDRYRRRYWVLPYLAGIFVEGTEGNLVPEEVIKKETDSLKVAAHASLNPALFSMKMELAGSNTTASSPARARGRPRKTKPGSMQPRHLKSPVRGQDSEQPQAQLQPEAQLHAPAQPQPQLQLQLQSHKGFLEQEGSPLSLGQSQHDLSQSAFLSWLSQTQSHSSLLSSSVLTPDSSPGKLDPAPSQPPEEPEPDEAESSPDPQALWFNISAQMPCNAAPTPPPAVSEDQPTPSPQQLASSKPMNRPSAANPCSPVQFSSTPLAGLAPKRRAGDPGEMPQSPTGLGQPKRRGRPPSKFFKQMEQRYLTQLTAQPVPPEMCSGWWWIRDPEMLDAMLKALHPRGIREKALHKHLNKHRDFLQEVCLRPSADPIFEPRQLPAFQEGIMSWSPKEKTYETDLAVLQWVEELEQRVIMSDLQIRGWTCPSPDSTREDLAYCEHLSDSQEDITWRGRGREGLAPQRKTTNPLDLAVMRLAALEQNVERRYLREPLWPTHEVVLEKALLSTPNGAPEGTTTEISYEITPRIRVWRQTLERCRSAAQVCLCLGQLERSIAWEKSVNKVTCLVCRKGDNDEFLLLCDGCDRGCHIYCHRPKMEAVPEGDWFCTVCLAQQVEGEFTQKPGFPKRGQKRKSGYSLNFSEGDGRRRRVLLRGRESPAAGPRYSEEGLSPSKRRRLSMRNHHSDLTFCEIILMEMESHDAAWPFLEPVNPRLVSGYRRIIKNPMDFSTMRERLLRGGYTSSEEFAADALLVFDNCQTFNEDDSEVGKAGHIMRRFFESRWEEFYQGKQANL
measurementDescription: BROMOscan
assayEndpoint: pKd
pKd is a log-scale quantity: -log10 of the concentration expressed in molar.

Task: Can you share its pKd? I mean this compound: "CCS(=O)(=O)Nc1cc(-c2cn(C)c3c(=O)[nH]ccc23)cc2c1ccn2C(C)(c1ccccn1)c1ccccn1"
Result: 5.46
